Reported values of self-cleavage kobs at 2500 uM GlcN6P for individual entries
B1: glmS ribozyme (parent)
chain: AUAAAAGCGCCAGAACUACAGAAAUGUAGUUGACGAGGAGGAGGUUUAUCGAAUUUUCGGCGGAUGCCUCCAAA

# Variants of: B1
# protocol summary: self-cleavage kobs at 2500 uM GlcN6P; higher = faster cleavage; RNA array
# particulars: with glucosamine-6-phosphate
Variants at the floor of the assay were thinned out.

Please list self-cleavage kobs at 2500 uM GlcN6P recorded for the variant C16U G40C U49C G51A
< 1e-05 s⁻¹

Quickly give me recorded self-cleavage kobs at 2500 uM GlcN6P for A12U G41C A52U G59A G60U
< 1e-05 s⁻¹

For the variant G9C C34G C61G , give its reported self-cleavage kobs at 2500 uM GlcN6P.
< 1e-05 s⁻¹
